Item-by-item account of inhibition at 10 µM
TGT: human C-terminal DNMT3A (a.a. 623-908) (Homo sapiens)
Construct: The human C-terminal DNMT3A (a.a. 623-908); made in house
Sequence (Q9Y6K1 627-912 limits assumed): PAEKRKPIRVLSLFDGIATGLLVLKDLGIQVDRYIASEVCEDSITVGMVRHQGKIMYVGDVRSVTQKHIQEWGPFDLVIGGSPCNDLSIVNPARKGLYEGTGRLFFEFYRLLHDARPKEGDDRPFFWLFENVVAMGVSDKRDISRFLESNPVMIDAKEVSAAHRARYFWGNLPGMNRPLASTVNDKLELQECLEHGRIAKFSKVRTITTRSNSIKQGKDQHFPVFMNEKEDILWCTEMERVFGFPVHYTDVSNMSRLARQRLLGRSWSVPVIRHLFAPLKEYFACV
METHOD SUMMARY: DNMT3A assay (restriction-based fluorescence)
Format: biochemical
RUN CONDITIONS: compound at 10 μM; read-out: DNMT3A (% of inhibition) 10 μM

- COMPOUND: "O=[N+]([O-])c1ccc(CCNc2ncnc3cc(OCC4CCN(CCNc5ccnc6ccccc56)CC4)ccc23)cc1 [AE]"
  inhibition at 10 µM: "61%"
- COMPOUND: "Cc1cc(NCCNc2ncnc3cc(OCC4CCN(CCNc5ccnc6ccccc56)CC4)ccc23)nc(N)n1 [Compound Q]"
  inhibition at 10 µM: "61%"
- COMPOUND: "c1ccc(CNc2ncnc3cc(OCC4CCN(CCNc5ccnc6ccccc56)CC4)ccc23)cc1 [Compound P]"
  inhibition at 10 µM: "43%"
- COMPOUND: "Nc1ccc(CCNc2ncnc3cc(OCC4CCN(CCNc5ccnc6ccccc56)CC4)ccc23)cc1 [AH]"
  inhibition at 10 µM: "68%"

###

Recorded inhibition at 10 µM for the following compounds
TGT: human C-terminal DNMT3A (a.a. 623-908) (Homo sapiens)
Construct: The human C-terminal DNMT3A (a.a. 623-908); made in house
METHOD SUMMARY: DNMT3A assay (restriction-based fluorescence)
Type: biochemical
RUN CONDITIONS: compound at 10 μM; read-out: DNMT3A (% of inhibition) 10 μM

- RECORD SMILES: "Clc1cccc(CCNc2ncnc3cc(OCC4CCN(CCNc5ccnc6ccccc56)CC4)ccc23)c1"
  inhibition at 10 µM: "82%"
- RECORD SMILES: "c1ccc(CCCNc2ncnc3cc(OCC4CCN(CCNc5ccncc5)CC4)ccc23)cc1"
  inhibition at 10 µM: "47%"
- RECORD SMILES: "CC(C)c1ccc(CCNc2ncnc3cc(OCC4CCN(CCNc5ccnc6ccccc56)CC4)ccc23)cc1"
  inhibition at 10 µM: "53%"
- RECORD SMILES: "c1ccc(-c2ccc(CNc3ncnc4cc(OCC5CCN(CCNc6ccnc7ccccc67)CC5)ccc34)cc2)cc1"
  inhibition at 10 µM: "86%"
- RECORD SMILES: "c1ccc(CCCNc2ncnc3cc(OCC4CCN(CCNc5ccnc6ccccc56)CC4)ccc23)cc1"
  inhibition at 10 µM: "81%"
- RECORD SMILES: "c1ccc(CCCNc2ncnc3cc(OCCCNCCNc4ccnc5ccccc45)ccc23)cc1"
  inhibition at 10 µM: "59%"

###

Reported inhibition at 32 µM values for the following molecules.
TGT: human C-terminal DNMT3A (a.a. 623-908) (Homo sapiens)
Construct: The human C-terminal DNMT3A (a.a. 623-908); made in house
METHOD SUMMARY: DNMT3A assay (restriction-based fluorescence)
Format: biochemical
RUN CONDITIONS: compound at 32 μM; read-out: DNMT3A (% of inhibition) 32 μM
MEASUREMENT KIND: inhibition at 32 µM (%)

- MOLECULE: "O=[N+]([O-])c1ccc(CCNc2ncnc3cc(OCC4CCN(CCNc5ccnc6ccccc56)CC4)ccc23)cc1 [AE]"
  UNIT LABEL: "%"
  READING: 72
- MOLECULE: "c1ccc2c(NCCNc3ncnc4cc(OCC5CCN(CCNc6ccnc7ccccc67)CC5)ccc34)ccnc2c1 [AI]"
  UNIT LABEL: "%"
  READING: 99
- MOLECULE: "COc1ccc(CCNc2ncnc3cc(OCC4CCN(CCNc5ccnc6ccccc56)CC4)ccc23)cc1 [AG]"
  UNIT LABEL: "%"
  READING: 100

Entry source: patent US9951044B2
